test: Critical (phase transition) temperature Tc by differential scanning calorimetry; type: physicochemical; details: lipids 21 and 25, DSC, heating rate 5° C./minute
Where Tc (phase transition temperature) equals or exceeds 70 °C, the correct label is y; where it does not, the label is n.

molecule: CCCCCCCCCCCCCCCCCC(=O)OCC(C[n+]1c(C)cc(C)cc1C)OC(=O)CCCCCCCCCCCCCCCCC.[O-][Cl+3]([O-])([O-])[O-] (centres unmarked) [Lipid 21AaS]
label value: y

molecule: CCCCCCCCCCCCCCCC(=O)OCC(C[n+]1c(-c2ccccc2)cc(-c2ccccc2)cc1-c1ccccc1)OC(=O)CCCCCCCCCCCCCCC.[O-][Cl+3]([O-])([O-])[O-] (centres unmarked) [Lipid 21BaP]
label value: y

molecule: CCCCCCCC/C=C\CCCCCCCC(=O)OCC(COC(=O)CCCCCCC/C=C\CCCCCCCC)[n+]1c(C)cc(C)cc1C.[O-][Cl+3]([O-])([O-])[O-] [Lipid 25AaO]
label value: n

molecule: CCCCCCCCCCCCCCCC(=O)OCC(C[n+]1c(C)cc(C)cc1C)OC(=O)CCCCCCCCCCCCCCC.[O-][Cl+3]([O-])([O-])[O-] (centres unmarked) [Lipid 21AaP]
label value: y

molecule: CCCCCCCCCCCCCCCC(=O)OCC(COC(=O)CCCCCCCCCCCCCCC)[n+]1c(-c2ccccc2)cc(-c2ccccc2)cc1-c1ccccc1.[O-][Cl+3]([O-])([O-])[O-] [Lipid 25BaP]
label value: y

Request: Has CCCCCCCC/C=C\CCCCCCCC(=O)OCC(C[n+]1c(C)cc(C)cc1C)OC(=O)CCCCCCC/C=C\CCCCCCCC.F[B-](F)(F)F (centres unmarked) [Lipid 21AbO] a recorded Tc (phase transition temperature) greater than or equal to 70 °C?
Response: n

Request: # bool: Tc (phase transition temperature) of CCCCCCCCCCCCCCCCCC(=O)OCC(COC(=O)CCCCCCCCCCCCCCCCC)[n+]1c(C)cc(C)cc1C.F[B-](F)(F)F [Lipid 25AbS] >= 70 °C
Response: y

Request: Could you tell me if the measured Tc (phase transition temperature) of CCCCCCCCCCCCCCCC(=O)OCC(COC(=O)CCCCCCCCCCCCCCC)[n+]1c(C)cc(C)cc1C.[O-][Cl+3]([O-])([O-])[O-] [Lipid 25AaP] reaches 70 °C or more?
Response: n

Request: Confirm if Tc (phase transition temperature) reported for the molecule CCCCCCCC/C=C\CCCCCCCC(=O)OCC(C[n+]1c(C)cc(C)cc1C)OC(=O)CCCCCCC/C=C\CCCCCCCC.[O-][Cl+3]([O-])([O-])[O-] (centres unmarked) [Lipid 21AaO] is 70 °C or above.
Response: n

Request: Tc (phase transition temperature) >= 70 °C for CCCCCCCCCCCCCCCCCC(=O)OCC(C[n+]1c(C)cc(C)cc1C)OC(=O)CCCCCCCCCCCCCCCCC.F[B-](F)(F)F (centres unmarked) [Lipid 21AbS] ?
Response: y

Request: Does Tc (phase transition temperature) meet or surpass 70 °C for CCCCCCCCCCCCCCCC(=O)OCC(C[n+]1c(C)cc(C)cc1C)OC(=O)CCCCCCCCCCCCCCC.F[B-](F)(F)F (centres unmarked) [Lipid 21AbP] ?
Response: y

Request: Could you tell me if the measured Tc (phase transition temperature) of CCCCCCCC/C=C\CCCCCCCC(=O)OCC(COC(=O)CCCCCCC/C=C\CCCCCCCC)[n+]1c(C)cc(C)cc1C.F[B-](F)(F)F [Lipid 25AbO] reaches 70 °C or more?
Response: n
